Value source: patent US20140088114A1

Quick reference for IC50 among some compounds
- measured.on: RON (Homo sapiens, UniProt Q04912)
- Construct: expressed in transfected cells; host or cells: HeLa
- Sequence (Q04912 913-1400 limits assumed): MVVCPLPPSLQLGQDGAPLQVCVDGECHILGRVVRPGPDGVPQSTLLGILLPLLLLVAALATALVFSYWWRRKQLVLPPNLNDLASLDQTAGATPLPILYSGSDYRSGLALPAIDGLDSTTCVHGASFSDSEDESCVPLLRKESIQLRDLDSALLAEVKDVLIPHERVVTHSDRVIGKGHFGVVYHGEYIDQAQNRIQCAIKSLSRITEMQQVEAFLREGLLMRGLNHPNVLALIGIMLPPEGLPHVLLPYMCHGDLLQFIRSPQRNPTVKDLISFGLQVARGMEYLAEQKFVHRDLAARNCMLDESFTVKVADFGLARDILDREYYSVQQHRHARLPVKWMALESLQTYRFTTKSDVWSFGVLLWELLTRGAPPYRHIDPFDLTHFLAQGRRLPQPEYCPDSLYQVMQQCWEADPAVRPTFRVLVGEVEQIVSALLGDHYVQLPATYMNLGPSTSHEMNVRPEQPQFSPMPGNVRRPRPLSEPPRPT
- experimental.details: sfRON cell mechanistic assay (HeLa), phosphorylated RON
- Type: cell-based
- test.settings: Table 6: comparison X = C1-3haloalkyl vs. X = C1-3alkyl; read-out: sfRON cell mechanistic

Examples with answers:
compound: O[C@H]1CC[C@H](n2cc(-c3cnc4[nH]cc([C@@H](CF)c5c(OC(F)F)ccc(F)c5Cl)c4c3)cn2)CC1
measured.on: RON (Homo sapiens, UniProt Q04912)
IC50: 30 to 100 nM
//
compound: Cn1cc(-c2cnc3[nH]cc(C(CF)c4c(Cl)ccc(F)c4Cl)c3c2)cn1 (stereo not shown)
measured.on: RON (Homo sapiens, UniProt Q04912)
IC50: 100 to 1000 nM
//
compound: COc1ccc(F)c(Cl)c1[C@@H](CF)c1c[nH]c2ncc(-c3cnn([C@H]4CC[C@H](O)CC4)c3)cc12
measured.on: RON (Homo sapiens, UniProt Q04912)
IC50: 30 to 100 nM
//
compound: CC(c1c(Cl)ccc(F)c1Cl)c1c[nH]c2ncc(-c3cnn(C)c3)cc12 (stereo not shown) [reference compound]
measured.on: RON (Homo sapiens, UniProt Q04912)
IC50: 1000 to 3000 nM

What does the data say about its IC50? Entry: COc1ccc(F)c(Cl)c1[C@@H](C)c1c[nH]c2ncc(-c3cnn([C@H]4CC[C@H](O)CC4)c3)cc12 [reference compound]
100 to 1000 nM

Subsequent entry: C[C@H](c1c(OC(F)F)ccc(F)c1Cl)c1c[nH]c2ncc(-c3cnn([C@H]4CC[C@H](O)CC4)c3)cc12 [reference compound]
30 to 100 nM

Subsequent entry: `O[C@H]1CC[C@H](n2cc(-c3cnc4[nH]cc([C@H](CF)c5c(OC(F)F)ccc(F)c5Cl)c4c3)cn2)CC1`
≤ 30 nM
